molecules and their reported melting point
Recorded endpoint: melting point

>>> print(df.to_string())
                                    molecule  recorded_endpoint                result
 0  O=C(c1cc2[nH]c(=O)c3cnc(C4CCOCC4)n3c2cc1C1CC1)N1CCc2cc(C3CC3)cnc21      melting point         310 °C (dec.)
 1  Cc1cc2c(cc1C(=O)N1CCc3cc(F)c(Cl)cc31)[nH]c(=O)c1nnc(C3CCOCC3)n12.Cl      melting point         316 to 319 °C
 2  Cc1cc2c(cc1C(=O)N1CCc3ccccc31)[nH]c(=O)c1cnc(C3CCOCC3)n12.Cl      melting point         216 to 219 °C
 3  Cc1cc2c(cc1C(=O)N1Cc3ccccc3C1)[nH]c(=O)c1nnc(CC3CCS(=O)(=O)CC3)n12.Cl      melting point         253 °C (dec.)
 4  COc1cc2c(cn1)N(C(=O)c1cc3[nH]c(=O)c4cnc(C5CCOCC5)n4c3cc1C1CC1)CC2      melting point         241 °C (dec.)
 5  Cc1cc2c(cc1C(=O)N1CCc3c(Cl)cccc3C1)[nH]c(=O)c1cnc(C3CCCC3)n12      melting point         297 to 299 °C
 6  Cc1cc2c(cc1C(=O)N1CCc3cc(Cl)ccc31)[nH]c(=O)c1nnc(C3CCOCC3)n12      melting point         335 to 336 °C
 7  Cc1cc2c(cc1C(=O)N1CCc3cc(Cl)ccc31)[nH]c(=O)c1cnc([C@@H]3CCC[C@@H]3O)n12 (racemic)      melting point         238 to 240 °C
 8  Cc1cc2c(cc1C(=O)N1CCc3onc(-c4ccc(Cl)cc4)c3C1)[nH]c(=O)c1nnc(C3CCOC3)n12.Cl (stereo not drawn)      melting point         219 to 221 °C
 9  Cc1cc2c(cc1C(=O)N1CCc3cc(F)ccc31)[nH]c(=O)c1nnc(C3CCCOC3)n12.Cl (stereo not drawn)      melting point         235 to 237 °C
10  Cc1cc2c(cc1C(=O)N1CCc3cc(Cl)ccc31)[nH]c(=O)c1nnc(CC3CCSCC3)n12.Cl      melting point         215 to 218 °C
11  Cc1cc2c(cc1C(=O)N1CCc3cc(Cl)ccc31)[nH]c(=O)c1nnc(C3(C)CCOCC3)n12.Cl      melting point         229 to 232 °C
12  Cc1cc2c(cc1C(=O)N1CCc3cc(F)c(Cl)cc31)[nH]c(=O)c1cnc(C3CCOCC3)n12.Cl      melting point         315 °C (dec.)
13  Cc1cc2c(cc1C(=O)N1CCc3cc(F)ccc31)[nH]c(=O)c1nnc(C3CCC3)n12.Cl      melting point         223 to 226 °C
14  Cc1cc2c(cc1C(=O)N1CCc3c(Cl)cccc3C1)[nH]c(=O)c1nnc(C3CCCC3)n12      melting point         236 to 237 °C
15  Cc1cc2c(cc1C(=O)N1CCc3cc(Br)cnc31)[nH]c(=O)c1cnc([C@H]3CC[C@@H](O)CC3)n12.Cl      melting point         305 to 307 °C
16  COc1cc2c(cc1C(=O)N1CCc3cc(Cl)ccc31)[nH]c(=O)c1cnc(C3CCOCC3)n12.Cl      melting point  328 to 330 °C (dec.)
17  Cc1cc2c(cc1C(=O)N1CCc3cc(Cl)ccc31)[nH]c(=O)c1nnc(C(F)C3CC3)n12.Cl (stereo not drawn)      melting point         309 to 311 °C
18  COCc1cc2c(cc1C(=O)N1CCc3cc(F)c(F)cc31)[nH]c(=O)c1nnc(C3(C)CCOCC3)n12.Cl      melting point         195 to 198 °C
19  Cc1cc2c(cc1C(=O)N1CCc3c(Cl)cccc3C1)[nH]c(=O)c1nnc(-c3sccc3C)n12      melting point         310 to 312 °C
20  COCc1cc2c(cc1C(=O)N1CCc3cc(Cl)ccc31)[nH]c(=O)c1nnc(C3CCOCC3)n12      melting point         198 to 201 °C
21  Cc1cc2c(cc1C(=O)N1Cc3cccc(C)c3C1)[nH]c(=O)c1nnc(C3CCOCC3)n12      melting point         262 to 263 °C
22  Cl.O=C(c1cc2[nH]c(=O)c3cnc(C4CCOCC4)n3c2cc1C1CC1)N1Cc2ccccc2C1      melting point  185 to 189 °C (dec.)
23  Cc1c(C(=O)N2CCc3cc(Cl)ccc32)ccc2c1[nH]c(=O)c1cnc(C3CCOCC3)n12      melting point         290 °C (dec.)
24  Cl.O=C(c1cc2[nH]c(=O)c3cnc(C4CCOCC4)n3c2cc1C1CC1)N1Cc2cccc(F)c2C1      melting point         205 to 207 °C
25  Cc1cc2c(cc1C(=O)N1CCc3cccnc31)[nH]c(=O)c1nnc(C3CCCC3)n12      melting point         207 to 209 °C
26  CN1CCN(C(=O)c2ccc3c(c2)[nH]c(=O)c2nnc(-c4ccc(O)cc4)n23)CC1c1ccccc1 (stereo not drawn)      melting point         286 °C (dec.)
27  Cc1cc2c(cc1C(=O)N1CCc3cc(F)ccc31)[nH]c(=O)c1cnc(C3CCOC3)n12.Cl (stereo not drawn)      melting point         186 to 188 °C
28  Cc1cc2c(cc1C(=O)N1Cc3ccccc3C1)[nH]c(=O)c1nnc(C3CCOC3)n12.Cl (stereo not drawn)      melting point         223 to 224 °C
29  COc1cc2c(cc1C(=O)N1Cc3cccc(F)c3C1)[nH]c(=O)c1cnc(C3CCOCC3)n12.Cl      melting point         195 to 197 °C
30  Cc1cc2c(cc1C(=O)N1CCc3cc(Cl)ccc31)[nH]c(=O)c1c(C)nc(C3CCOCC3)n12.Cl      melting point         198 °C (dec.)
31  Cc1cc2c(cc1C(=O)N1CCc3cccnc31)[nH]c(=O)c1cnc(C3CCOCC3)n12      melting point         341 °C (dec.)
32  Cc1cc2c(cc1C(=O)N1CCc3cccc(C(=O)O)c3C1)[nH]c(=O)c1cnc(C3CCOCC3)n12.Cl      melting point         212 to 213 °C

###

# Assayed system: PDE9 (Homo sapiens, UniProt O76083)
# Sequence (O76083 whole entry): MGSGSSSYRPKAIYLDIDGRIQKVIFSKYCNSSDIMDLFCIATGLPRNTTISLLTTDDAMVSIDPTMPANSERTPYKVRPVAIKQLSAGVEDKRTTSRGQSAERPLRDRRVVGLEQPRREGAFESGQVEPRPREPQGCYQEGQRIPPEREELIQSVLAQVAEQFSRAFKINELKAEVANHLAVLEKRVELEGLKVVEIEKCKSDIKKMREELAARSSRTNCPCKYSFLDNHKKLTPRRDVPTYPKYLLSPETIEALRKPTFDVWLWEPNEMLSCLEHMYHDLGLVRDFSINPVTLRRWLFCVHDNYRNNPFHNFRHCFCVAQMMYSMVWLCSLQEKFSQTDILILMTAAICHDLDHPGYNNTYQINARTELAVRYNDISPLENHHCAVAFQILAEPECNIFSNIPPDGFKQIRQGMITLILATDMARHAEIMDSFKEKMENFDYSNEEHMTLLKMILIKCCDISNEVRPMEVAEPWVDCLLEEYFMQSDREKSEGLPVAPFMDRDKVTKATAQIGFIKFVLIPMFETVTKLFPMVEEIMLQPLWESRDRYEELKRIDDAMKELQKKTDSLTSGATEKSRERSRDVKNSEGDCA
# Protocol summary: PDE9-inhibiting activity (SPA, 3H-cGMP degradation)
Recorded endpoint: log10 of IC50 (log10 of the value in nM)

>>> df
                                    compound  measured_number
 0  COCc1cc2c(cc1C(=O)N1CCc3ncccc3C1)[nH]c(=O)c1cnc(C3CCOCC3)n12             0.96
 1  Cc1cc2c(cc1C(=O)N1Cc3ccc(Cl)cc3C1)[nH]c(=O)c1cnc(C3CCOCC3)n12.Cl             1.04
 2  Cc1cc2c(cc1C(=O)N1CCc3cc(Br)cnc31)[nH]c(=O)c1nnc(C3CC(F)(F)C3)n12             1.43
 3  Cc1cc2c(cc1C(=O)N1CCc3cc(Cl)ccc31)[nH]c(=O)c1cnc(C3CCOCC3)n12.Cl             0.00
 4  COc1cc2c(cc1C(=O)N1Cc3ccccc3C1)[nH]c(=O)c1nnc(C3CCOCC3)n12.Cl             1.45
 5  Cc1cc2c(cc1C(=O)N1CCc3cc(Cl)ccc31)[nH]c(=O)c1nnc(C(F)C3CC3)n12.Cl (stereo not drawn)             0.49
 6  CN(C)CCOc1cc2c(cc1C(=O)N1CCc3cc(F)ccc31)[nH]c(=O)c1cnc(C3CCOCC3)n12             0.61
 7  COCc1cc2c(cc1C(=O)N1CCc3cc(Cl)ccc31)[nH]c(=O)c1nnc(CC3CC3)n12.Cl             0.56
 8  Cc1cc2c(cc1C(=O)N1CCc3cc(F)c(Cl)cc31)[nH]c(=O)c1nnc(C3CCCC3)n12.Cl             0.76
 9  Cc1cc2c(cc1C(=O)N1CCc3cc(Cl)c(F)cc31)[nH]c(=O)c1cnc(C3CCOCC3)n12.Cl             0.00
10  Cc1cc2c(cc1C(=O)N1Cc3ccccc3C1)[nH]c(=O)c1cnc(C3CCOCC3)n12             1.26
11  Cc1cc2c(cc1C(=O)N1CCc3nc4ncccc4cc3C1)[nH]c(=O)c1cnc(C3CCOCC3)n12             0.96
12  COCc1cc2c(cc1C(=O)N1CCc3cc(Br)cnc31)[nH]c(=O)c1cnc(C3CCOCC3)n12.Cl             0.00
13  Cc1cc2c(cc1C(=O)N1CCc3cc(F)ccc31)[nH]c(=O)c1nnc(C3(C)CCOCC3)n12.Cl             1.46
14  Cl.O=C(c1cc2[nH]c(=O)c3cnc(C4CCOCC4)n3c2cc1OCCO)N1CCc2cc(Cl)ccc21             0.08
15  Cc1cc2c(cc1C(=O)N1CCc3cc(S(=O)(=O)N(C)C)ccc31)[nH]c(=O)c1cnc(C3CCOCC3)n12.Cl             0.41
16  COC(=O)c1cccc2c1CN(C(=O)c1cc3[nH]c(=O)c4cnc(C5CCOCC5)n4c3cc1C)CC2.Cl             0.54
17  Cc1cc2c(cc1C(=O)N1CCc3ccccc3C1c1ccncc1)[nH]c(=O)c1nnc(-c3ccc(O)c(Cl)c3)n12 (stereo not drawn)             0.36
18  COc1cc2c(cn1)N(C(=O)c1cc3[nH]c(=O)c4cnc(C5CCOCC5)n4c3cc1OC)CC2             1.20
19  Cc1cc2c(cc1C(=O)N1CCc3cc(F)cnc31)[nH]c(=O)c1cnc(C3CCOCC3)n12.Cl             0.89
20  O=C(c1ccc2c(c1)[nH]c(=O)c1nnc(-c3ccc(O)cc3)n12)N1CCc2c(Cl)cccc2C1             1.28
21  Cc1cc2c(cc1C(=O)N1CCc3cc(Cl)ccc31)[nH]c(=O)c1nnc(C(O)C3CC3)n12 (stereo not drawn)             0.73
22  COc1cc2c(cc1C(=O)N1Cc3ccccc3C[C@@H]1CO)[nH]c(=O)c1cnc(C3CCCCC3)n12             1.26
23  Cc1cc2c(cc1C(=O)N1CCc3cc(Br)cnc31)[nH]c(=O)c1nnc(C3CCOCC3)n12             0.62
24  Cc1cc2c(cc1C(=O)N1CC(C)(C)c3cc(Cl)ccc31)[nH]c(=O)c1cnc(C3CCOCC3)n12            -0.10
25  Cc1cc2c(cc1C(=O)N1Cc3ccccc3C1)[nH]c(=O)c1nnc(C3CCOCC3)n12             1.18
26  Cc1cc2c(cc1C(=O)N1CCc3cc(Cl)ccc31)[nH]c(=O)c1nnc([C@H]3CC[C@@H](O)CC3)n12             0.18
27  O=C(c1cc2[nH]c(=O)c3cnc(C4CCOCC4)n3c2cc1Cl)N1CCc2cccnc21             1.00
28  Cc1cc2c(cc1C(=O)N1CCc3cc(F)ccc31)[nH]c(=O)c1cnc(C3CCOCC3)n12.Cl             0.40
29  Cc1cc2c(cc1C(=O)N1CCc3ccccc31)[nH]c(=O)c1cnc(C3CCCC3)n12             0.83
